B1: EFHC1 (parent)
chain: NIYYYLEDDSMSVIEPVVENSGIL

variants of: B1; test: protein stability index of a GFP-peptide fusion (GPS, HEK-293T) (PSI 1-6); higher = more stable; settings: c terminus: a fixed tail appended;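 also: lentivirally expressed fusions sorted by FACS into six bins by GFP to DsRed ratio, PSI derived from sequencing read proportions per bin multiplied by bin number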
observationType: protein stability index
Numbers only.

For orientation, consider the following solved cases.
NIYYYLEDDSMSVIEPVVEQSGIL: 1.67
NWYYYLEDDSMSVIEPVVENSGIL: 2.35
NIYYYLEDDSMGVIEPVVENSGIL: 2.37

Parameters: items (list). Returns: protein stability index for each item.
1. NIYYYLEDDSMSVIEPVVEPSGIL
2. NIYYYLEDDSMSVIENVVENSGIL
3. NIYYYLEDDSMSVIEPVVENSEIL
4. NIYYYLEDDSMSVIEPVVENSQIL

Reply:
[2.95, 1.65, 2.71, 1.82]
